Test: self-splicing fitness, log relative to wild type (ln ratio); higher = more splicing; Tetrahymena group I intron in knt gene, E. coli kanamycin selection, DiMSum; sequences stand for … in CUCUCU…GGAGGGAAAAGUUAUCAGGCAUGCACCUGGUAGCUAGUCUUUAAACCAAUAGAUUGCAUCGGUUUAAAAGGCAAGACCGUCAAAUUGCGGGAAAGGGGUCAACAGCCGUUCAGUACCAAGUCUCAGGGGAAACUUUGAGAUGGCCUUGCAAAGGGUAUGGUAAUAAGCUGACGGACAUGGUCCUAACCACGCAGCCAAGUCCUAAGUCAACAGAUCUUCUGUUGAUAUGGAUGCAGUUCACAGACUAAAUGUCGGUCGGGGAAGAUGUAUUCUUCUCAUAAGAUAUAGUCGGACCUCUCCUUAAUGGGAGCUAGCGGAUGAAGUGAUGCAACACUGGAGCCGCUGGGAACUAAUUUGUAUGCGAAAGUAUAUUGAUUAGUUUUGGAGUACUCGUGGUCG;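 further: selection with 25 µg/mL kanamycin versus none on LB agar overnight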
Conditions: 37 °C
Given measured self-splicing fitness (ln), output t if it is greater than or equal to -1 and f if not.

Solved entries (count: 5):
ACUAAGCAAUAUUACGACCA t
ACGCAGCAAUAUUACGUUGU f
UCUAAGCAAUAUUACGCUUG f
AAUUAGCAAUAUUACGGGUA t
CUGCAGCAAUAUUACGUGCU f

Exam item: Does GCAGAGCAAUAUUACGCGGG have a reported self-splicing fitness (ln) of at least -1?
Marked response: f

Exam item: Does GCUUAGCAAUAUUACGGAAG have a reported self-splicing fitness (ln) of at least -1?
Marked response: f

Exam item: Does AACGAGCAAUAUUACGGGUA have a reported self-splicing fitness (ln) of at least -1?
Marked response: t

* * *

Experiment: self-splicing fitness, log relative to wild type (ln ratio); higher = more splicing; Tetrahymena group I intron in knt gene, E. coli kanamycin selection, DiMSum; sequences stand for … in CUCUCU…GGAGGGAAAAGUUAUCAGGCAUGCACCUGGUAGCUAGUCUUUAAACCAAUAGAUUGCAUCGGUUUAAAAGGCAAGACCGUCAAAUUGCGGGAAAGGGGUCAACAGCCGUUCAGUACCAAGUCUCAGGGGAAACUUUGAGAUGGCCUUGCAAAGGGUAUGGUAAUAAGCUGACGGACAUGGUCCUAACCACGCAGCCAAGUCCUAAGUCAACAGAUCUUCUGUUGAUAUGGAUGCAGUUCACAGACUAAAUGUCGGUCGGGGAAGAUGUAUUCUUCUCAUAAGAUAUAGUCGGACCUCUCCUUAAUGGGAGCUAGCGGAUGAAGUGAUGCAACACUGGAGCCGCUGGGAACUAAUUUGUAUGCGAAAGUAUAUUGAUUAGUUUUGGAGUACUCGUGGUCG
Conditions: 30 °C
Task for the reader: assign each of the following sequences its reported self-splicing fitness (ln).
Give bare numbers.

Examples from the recorded data:
CACCAGCAAUAUUACGAGCU -3.87
GGUAAGCAAUAUUACGGCUC -0.214

Would you mind giving self-splicing fitness (ln) for every sequence in the list below?
1. CAAGAGCAAUAUUACGGUGU
2. GCUGAGCAAUAUUACGCUGG
3. CGCAAGCAAUAUUACGUGGU
4. UUUCAGCAAUAUUACGGUAG

Marked response:
1: -3.52; 2: -3.26; 3: -3.75; 4: -0.521

Would you mind giving self-splicing fitness (ln) for every sequence in the list below?
1. AGAGAGCAAUAUUACGCUCA
2. GUACAGCAAUAUUACGUGUG

Marked response:
1: -2.44; 2: -2.12
